pIC50: −log10 of the molar value.
// compounds with reported pIC50 on Coagulation factor X (Homo sapiens), multi-publication
readout type: pIC50

Below: 8 compounds and their reported pIC50.
N=C(N)Nc1ccc(C(=O)Oc2ccc(OC(F)(F)F)cc2)cc1
6.36
CC(C)CCC(=O)N[C@@H](CC(=O)O)C(=O)N1CCC[C@H]1C(=O)N[C@H](C=O)CCCNC(=N)N
7.24
CC1(C(=O)Oc2cc(Cl)cc(OC(=O)c3ccc(NC(=N)N)cc3)c2)CC1
6.47
CCOC(=O)[C@H]1CN(S(=O)(=O)c2ccc3cc(Cl)ccc3c2)CC(=O)N1CC1CCN(c2ccncc2)CC1
7.80
N=C(N)Nc1ccc(C(=O)Oc2cccc(OC(F)(F)F)c2)cc1
6.37
N=C(N)NCCC[C@@H](C=O)NC(=O)[C@@H]1CCCN1C(=O)[C@H](CC(=O)O)NC(=O)CCC1CCCCC1
7.51
CCCC(CCC)C(=O)N[C@@H](CC(=O)O)C(=O)N1CCC[C@H]1C(=O)N[C@H](C=O)CCCNC(=N)N
6.76
O=C1CN(S(=O)(=O)c2ccc3cc(Cl)ccc3c2)CC(C=NO)N1CC1CCN(c2ccncc2)CC1 (centres unmarked)
7.89

1: NCC1CN(S(=O)(=O)c2ccc3cc(Cl)ccc3c2)CC(=O)N1CC1CCN(c2ccncc2)CC1 (centres unmarked)
2: CCCC(CCC)C(=O)N[C@@H](CC(=O)OC)C(=O)N1CCC[C@H]1C(=O)N[C@H](C=O)CCCNC(=N)N
3: N=C(N)NCCC[C@@H](C=O)NC(=O)[C@@H]1CCCN1C(=O)[C@H](CC(=O)O)NC(=O)CC1CCCCC1
4: N=C(N)Nc1ccc(C(=O)Oc2cc(Cl)cc(OC(=O)C3CCCCC3)c2)cc1
Rank descending by pIC50. Write the labels in rank order as requested.
1, 3, 2, 4

P: CN(C)CC1CN(S(=O)(=O)c2ccc3cc(Cl)ccc3c2)CC(=O)N1CC1CCN(c2ccncc2)CC1 (centres unmarked)
Q: CCOC(=O)C1CN(S(=O)(=O)c2ccc3cc(Cl)ccc3c2)CC(=O)N1CC1CCN(c2ccncc2)CC1 (centres unmarked)
Hey, between P and Q which has a smaller measured pIC50? Your answer should be the label attached to the chosen record.
Q
(Q: 7.72, P: 8.07)
